All values here come from patent US20260151494A1.

Target: T1, human CD71 extracellular domain (human, UniProt P02786 89-760)
T1 construct: also called hCD71; human CD71-ECD
T1 sequence (P02786 89-760): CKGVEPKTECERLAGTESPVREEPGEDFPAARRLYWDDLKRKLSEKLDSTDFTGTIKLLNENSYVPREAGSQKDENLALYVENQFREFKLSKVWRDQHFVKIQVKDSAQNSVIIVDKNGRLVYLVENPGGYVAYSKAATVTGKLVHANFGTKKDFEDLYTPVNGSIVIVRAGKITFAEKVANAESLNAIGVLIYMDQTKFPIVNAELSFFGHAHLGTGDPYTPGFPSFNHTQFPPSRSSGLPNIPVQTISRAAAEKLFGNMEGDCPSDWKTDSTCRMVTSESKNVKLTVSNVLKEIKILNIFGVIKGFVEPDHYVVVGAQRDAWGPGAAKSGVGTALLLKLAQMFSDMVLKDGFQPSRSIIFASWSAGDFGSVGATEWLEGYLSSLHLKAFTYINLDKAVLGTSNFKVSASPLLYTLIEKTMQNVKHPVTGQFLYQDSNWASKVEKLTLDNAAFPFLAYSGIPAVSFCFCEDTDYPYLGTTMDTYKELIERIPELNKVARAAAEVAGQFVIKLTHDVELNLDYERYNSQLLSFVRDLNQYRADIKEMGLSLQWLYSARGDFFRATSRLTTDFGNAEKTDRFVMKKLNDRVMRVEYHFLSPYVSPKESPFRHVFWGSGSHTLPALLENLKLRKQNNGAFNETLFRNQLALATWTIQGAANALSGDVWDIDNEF
Assay: primary ELISA, signal ratio to HSA
In this section we review reported hCD71:HSA values for a set of binders.
# answer = number (no unit)

These recorded examples may help you get a feel for the data.
* CD71-binding FN3 domain of SEQ ID NO: 204 (designed binder) MSLPAPKNLVVSRVTEDSARLSWTAPDAAFDSFLIQYDEWPTYGEAIVLTVPGSERSYDLTGLKPGTEYLVEIVGVKGGNLSGPLSAIFTT | 243
* CD71-binding FN3 domain of SEQ ID NO: 133 (designed binder) MSLPAPKNLVVSRVTEDSARLSWTAPDAAFDSFKIKYAEYDRYGEAIALFVPGSERSYDLTGLKPGTEYFVHIDGVKGGTDSQPLVASFTT | 138
* CD71-binding FN3 domain of SEQ ID NO: 126 (designed binder) MSLPAPKNLVVSRVTEDSARLSWTAPDAVFDSFEIAYQELSLWGEAIVLTVPGSERSYDLTGLKPGTEYYVHIGGVKGGIWSSPLSAYFTT | 227
* CD71-binding FN3 domain of SEQ ID NO: 185 (designed binder) MGSLPAPKNLVVSRVTEDSARLSWTAPDAAFDSFEISYWEHTFNGEAIILFVPGSERSYDLTGLKPGTEYWVQIGGVKGGNWSAPLSAIFTT | 148
* CD71-binding FN3 domain of SEQ ID NO: 158 (designed binder) MSLPAPKNLVVSRVTEDSARLSWTAPDAAFDSFEIAYFERTWFGEAIVLTVPGSERSYDLTGLKPGTEYWVQIGGVKGGDWSKPLSAIFTT | 96
* CD71-binding FN3 domain of SEQ ID NO: 136 (designed binder) MSLPAPKNLVVSRVTEDSARLSWTAPDAAFDSFEIDYVEFIFTGEAIGLIVPGSERSYDLTGLKPGTEYWVTIAGVKGGEWSTPLQAFLTT | 273

State the recorded hCD71:HSA for this entry: CD71-binding FN3 domain of SEQ ID NO: 192 (designed binder) MSLPAPKNLVVSRVTEDSARLSWTAPDAAFDSFEIGYFENLYLGEAIVLTVPGSERSYDLTGLKPGTEYWVQIGGVKGGWGSNPLSAIFTT
61

Another binder to look at: CD71-binding FN3 domain of SEQ ID NO: 197 (designed binder) MSLPAPKNLVVSRVTEDSARLSWTAPDAAFDSFFIGYLEPQPPGEAISLLVPGSERSYDLTGLKPGTEYNVTIQGVKGGFPSEPLHAIFTT
36

Now the same for CD71-binding FN3 domain of SEQ ID NO: 205 (designed binder) MSLPAPKNLVVSRVTEDSARLSWTAPDAAFDSFEIGYFENLYLGEAIHLFVPGSERSYDLTGLKPGTEYNVTIQGVKGGFPSEPLIANFTT
53
